Biological target: h-GABAA α1β2γ1 (Homo sapiens, UniProt P14867+Q8N1C3)
Assay: Radioligand binding assay, [3H]RO7239181 competition, HEK293F membranes
pKi: −log10 of the molar value.
Classify as follows. Reported pKi greater than or equal to 7: fulfilled. Reported pKi below: not fulfilled.

- compound: "O=c1[nH]nc2n1-c1ccc(Br)c(Cl)c1C(c1ccccc1F)=NC2"
  qualitativeLabel: "fulfilled"
- compound: "Cc1nnc2n1-c1ccc(Cl)cc1C(c1ccccc1)=NC2 [Alprazolam, reference compound]"
  qualitativeLabel: "not fulfilled"
- compound: "Fc1cccnc1C1=NCc2nnc(-c3ccncn3)n2-c2ccc(Br)c(Cl)c21"
  qualitativeLabel: "fulfilled"
- compound: "Cc1nnc2n1-c1ccc(Cl)c(Cl)c1C(c1c(F)cccc1F)=NC2"
  qualitativeLabel: "fulfilled"
- compound: "Cc1nnc2n1-c1ccc(Br)c(Cl)c1C(c1c(F)cccc1F)=NC2"
  qualitativeLabel: "fulfilled"
- compound: "Fc1cccc(F)c1C1=NCc2nnc(-c3ccncn3)n2-c2ccc(Cl)c(Cl)c21"
  qualitativeLabel: "fulfilled"
